molecular target: N-type calcium channel α1B (Cav2.2), β3 and α2δ subunits (Homo sapiens, UniProt Q00975); construct: expressed in transfected cells; assay: Functional assay, antagonism of N-type calcium channel (FDSS calcium mobilization response to KCl depolarization); format: cell-based; conditions: 0.33 μM compound; FDSS, 50 mM KCl
Sequence (Q00975 whole entry): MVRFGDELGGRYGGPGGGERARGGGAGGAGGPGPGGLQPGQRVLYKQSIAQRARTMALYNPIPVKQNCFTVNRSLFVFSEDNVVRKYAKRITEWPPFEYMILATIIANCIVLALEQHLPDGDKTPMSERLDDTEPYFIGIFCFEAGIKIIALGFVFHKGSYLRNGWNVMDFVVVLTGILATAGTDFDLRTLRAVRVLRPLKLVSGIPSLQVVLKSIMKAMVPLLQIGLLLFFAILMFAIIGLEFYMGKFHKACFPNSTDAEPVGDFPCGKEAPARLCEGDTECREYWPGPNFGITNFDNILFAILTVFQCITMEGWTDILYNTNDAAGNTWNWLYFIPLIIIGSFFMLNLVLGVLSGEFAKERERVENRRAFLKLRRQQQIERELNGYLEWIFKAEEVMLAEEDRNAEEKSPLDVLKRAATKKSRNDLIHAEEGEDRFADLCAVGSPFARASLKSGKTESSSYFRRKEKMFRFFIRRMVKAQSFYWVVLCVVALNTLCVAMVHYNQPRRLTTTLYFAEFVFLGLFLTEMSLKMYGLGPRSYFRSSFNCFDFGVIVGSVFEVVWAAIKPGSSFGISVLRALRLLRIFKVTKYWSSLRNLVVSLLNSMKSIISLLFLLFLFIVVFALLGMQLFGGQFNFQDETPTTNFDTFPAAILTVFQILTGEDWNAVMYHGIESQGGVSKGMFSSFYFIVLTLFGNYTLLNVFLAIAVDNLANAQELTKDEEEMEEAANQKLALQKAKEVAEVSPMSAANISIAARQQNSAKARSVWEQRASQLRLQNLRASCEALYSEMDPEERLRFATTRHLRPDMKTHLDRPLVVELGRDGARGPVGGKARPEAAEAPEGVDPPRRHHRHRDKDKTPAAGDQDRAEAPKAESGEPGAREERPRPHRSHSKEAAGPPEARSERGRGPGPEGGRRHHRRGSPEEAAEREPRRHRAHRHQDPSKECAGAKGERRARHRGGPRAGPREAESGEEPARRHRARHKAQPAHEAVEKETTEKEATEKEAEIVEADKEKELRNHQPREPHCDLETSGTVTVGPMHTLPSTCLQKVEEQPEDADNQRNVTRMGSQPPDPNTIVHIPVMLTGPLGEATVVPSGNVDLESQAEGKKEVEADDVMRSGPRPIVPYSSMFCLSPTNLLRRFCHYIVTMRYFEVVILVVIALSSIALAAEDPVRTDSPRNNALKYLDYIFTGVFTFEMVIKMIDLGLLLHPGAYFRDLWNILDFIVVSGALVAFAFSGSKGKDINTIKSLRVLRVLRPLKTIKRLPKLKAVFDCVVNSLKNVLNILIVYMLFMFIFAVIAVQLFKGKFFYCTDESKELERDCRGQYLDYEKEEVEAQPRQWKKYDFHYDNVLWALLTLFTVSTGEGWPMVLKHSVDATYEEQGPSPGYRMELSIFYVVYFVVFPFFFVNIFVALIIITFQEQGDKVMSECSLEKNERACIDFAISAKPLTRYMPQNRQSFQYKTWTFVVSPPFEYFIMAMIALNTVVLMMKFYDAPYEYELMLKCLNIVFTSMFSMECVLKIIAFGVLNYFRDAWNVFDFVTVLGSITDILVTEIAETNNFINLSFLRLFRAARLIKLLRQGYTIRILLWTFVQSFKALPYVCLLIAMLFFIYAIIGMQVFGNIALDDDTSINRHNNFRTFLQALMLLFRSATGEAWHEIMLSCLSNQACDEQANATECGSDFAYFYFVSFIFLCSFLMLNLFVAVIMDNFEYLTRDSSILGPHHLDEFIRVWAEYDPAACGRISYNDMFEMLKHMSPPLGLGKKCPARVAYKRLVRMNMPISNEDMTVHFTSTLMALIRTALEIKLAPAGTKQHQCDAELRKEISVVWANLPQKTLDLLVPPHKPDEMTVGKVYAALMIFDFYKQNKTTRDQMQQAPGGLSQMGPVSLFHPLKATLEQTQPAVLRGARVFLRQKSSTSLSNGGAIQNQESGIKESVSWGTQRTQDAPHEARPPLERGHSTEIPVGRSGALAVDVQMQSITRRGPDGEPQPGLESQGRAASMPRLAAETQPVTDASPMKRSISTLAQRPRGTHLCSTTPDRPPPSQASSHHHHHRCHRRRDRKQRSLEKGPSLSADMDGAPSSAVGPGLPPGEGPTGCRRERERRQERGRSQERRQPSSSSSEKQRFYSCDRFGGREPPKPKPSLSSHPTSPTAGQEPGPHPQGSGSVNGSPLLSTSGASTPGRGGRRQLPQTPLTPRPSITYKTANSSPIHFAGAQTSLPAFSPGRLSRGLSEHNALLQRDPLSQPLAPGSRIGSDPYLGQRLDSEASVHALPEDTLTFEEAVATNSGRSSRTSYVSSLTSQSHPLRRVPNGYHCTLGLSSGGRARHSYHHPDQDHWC
Sequence (P54284 whole entry partner): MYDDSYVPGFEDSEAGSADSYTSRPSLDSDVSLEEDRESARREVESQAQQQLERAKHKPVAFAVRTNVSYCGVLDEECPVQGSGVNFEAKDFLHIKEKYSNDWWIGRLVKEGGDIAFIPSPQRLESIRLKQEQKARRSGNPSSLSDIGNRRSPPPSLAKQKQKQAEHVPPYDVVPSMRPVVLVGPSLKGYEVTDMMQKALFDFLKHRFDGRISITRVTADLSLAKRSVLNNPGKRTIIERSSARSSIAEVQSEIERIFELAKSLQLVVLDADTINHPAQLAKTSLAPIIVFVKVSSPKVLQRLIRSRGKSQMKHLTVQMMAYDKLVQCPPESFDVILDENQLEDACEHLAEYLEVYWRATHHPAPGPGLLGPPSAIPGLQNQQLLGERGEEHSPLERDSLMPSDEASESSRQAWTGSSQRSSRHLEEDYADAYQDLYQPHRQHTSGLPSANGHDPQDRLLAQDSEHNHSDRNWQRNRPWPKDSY
Sequence (P54289 25-956 partner limits assumed): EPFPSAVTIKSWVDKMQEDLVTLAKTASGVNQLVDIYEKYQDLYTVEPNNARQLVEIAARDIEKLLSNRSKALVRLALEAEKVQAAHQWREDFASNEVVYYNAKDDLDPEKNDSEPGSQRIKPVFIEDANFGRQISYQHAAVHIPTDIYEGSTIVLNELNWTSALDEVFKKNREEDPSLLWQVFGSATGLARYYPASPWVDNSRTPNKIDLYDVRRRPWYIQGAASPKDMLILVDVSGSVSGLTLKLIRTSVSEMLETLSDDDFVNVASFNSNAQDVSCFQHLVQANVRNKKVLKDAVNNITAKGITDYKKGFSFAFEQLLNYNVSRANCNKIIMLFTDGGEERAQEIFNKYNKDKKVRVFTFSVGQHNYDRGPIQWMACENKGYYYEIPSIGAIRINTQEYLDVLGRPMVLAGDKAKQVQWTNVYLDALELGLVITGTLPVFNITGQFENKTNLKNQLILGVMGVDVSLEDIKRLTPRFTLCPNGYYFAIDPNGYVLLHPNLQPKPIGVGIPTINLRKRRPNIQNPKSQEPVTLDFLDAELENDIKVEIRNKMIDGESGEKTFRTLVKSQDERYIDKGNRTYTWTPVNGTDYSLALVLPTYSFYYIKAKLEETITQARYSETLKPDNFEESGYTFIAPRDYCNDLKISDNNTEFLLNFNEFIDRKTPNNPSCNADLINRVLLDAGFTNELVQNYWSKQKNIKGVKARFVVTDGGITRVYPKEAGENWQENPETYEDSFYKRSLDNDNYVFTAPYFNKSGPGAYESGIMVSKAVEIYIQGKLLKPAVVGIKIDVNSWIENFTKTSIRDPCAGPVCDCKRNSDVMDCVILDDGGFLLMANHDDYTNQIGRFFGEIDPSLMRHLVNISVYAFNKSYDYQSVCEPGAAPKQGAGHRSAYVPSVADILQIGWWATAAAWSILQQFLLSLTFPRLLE
Sequence (P54289 957-1103 partner limits assumed): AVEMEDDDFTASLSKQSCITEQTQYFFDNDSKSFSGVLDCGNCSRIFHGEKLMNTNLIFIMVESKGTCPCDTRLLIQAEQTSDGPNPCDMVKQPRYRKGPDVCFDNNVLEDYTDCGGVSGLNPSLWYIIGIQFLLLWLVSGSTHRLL
Quantity measured: inhibition at 0.33 µM (%)

> print(dat)
                                item.smiles                       experimental.system      quantity.measured  uom  recorded.number
1  COc1ccccc1-n1nc2c(c1-c1ccc(Cl)cc1)CN(S(=O)(=O)C(C)C)C2  N-type calcium channel α1B (Cav2.2), β3 and α2δ subunits (Homo sapiens, UniProt Q00975)  inhibition at 0.33 µM    %               94
2  CN(C)S(=O)(=O)N1Cc2nn(-c3ccccc3OC(C)(C)C)c(-c3ccc(Cl)cc3)c2C1  N-type calcium channel α1B (Cav2.2), β3 and α2δ subunits (Homo sapiens, UniProt Q00975)  inhibition at 0.33 µM    %               87
3  COc1cc(Cl)ccc1-n1nc2c(c1-c1ccc(Cl)cc1)CN(S(=O)(=O)C(C)C)C2  N-type calcium channel α1B (Cav2.2), β3 and α2δ subunits (Homo sapiens, UniProt Q00975)  inhibition at 0.33 µM    %               86

* * *

molecular target: N-type calcium channel α1B (Cav2.2), β3 and α2δ subunits (Homo sapiens); construct: expressed in transfected cells; test: Functional assay, antagonism of N-type calcium channel (FDSS calcium mobilization response to KCl depolarization); format: cell-based; conditions: 0.33 μM compound; FDSS, 50 mM KCl
Quantity measured: inhibition at 0.33 µM (%)

> print(dat)
                                item.smiles  recorded.number
1  COc1ccc(-n2nc3c(c2-c2ccc(Cl)cc2)CN(S(=O)(=O)C2CCCCC2)C3)c(C)c1               71
2  CC(C)CS(=O)(=O)N1Cc2nn(-c3cccc4c3OCO4)c(-c3ccc(Cl)cc3)c2C1               87
3  COc1ccccc1-n1nc2c(c1-c1ccc(OC(C)C)nc1)CN(S(=O)(=O)C(C)C)C2               79

All figures here come from patent US8846949B2.
